B1: ZNF649 (parent)
chain: YQAGKPDALTKLEQGEPLWTLEDE

Variants of: B1
Assay details: protein stability index of a GFP-peptide fusion (GPS, HEK-293T) (PSI 1-6); higher = more stable;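 further: lentivirally expressed fusions sorted by FACS into six bins by GFP to DsRed ratio, PSI derived from sequencing read proportions per bin multiplied by bin number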
Condition context: c terminus: a fixed tail appended
Property: protein stability index
Note: the reply should be a number with no unit written.

Task: Entry YQAGKPDALTKLEQGEPGWTLEDE [L18G] : reported protein stability index = ?
Output: 4.83

Task: And for YRAGKPDALTKLEQGEPLWTLEDE [Q2R] ?
Output: 5.15

Task: Here is the next variant: YQAGKPDALTKLEQGEPLSTLEDE [W19S]
Output: 5.57

Task: For YQAGKPDALTKLEQGEPLWKLEDE [T20K] then?
Output: 4.13

Task: Can you check YQAGKPDNLTKLEQGEPLWTLEDE [A8N] next?
Output: 4.49

Continuing:
Task: // query protein stability index value for entry YQAGKEDALTKLEQGEPLWTLEDE [P6E]
Output: 5.46

Task: Another variant: YQAGKPNALTKLEQGEPLWTLEDE [D7N]
Output: 3.26
